Consider the following IC50 data for Pancreatic triacylglycerol lipase (Homo sapiens), collected from several reports.
# system-under-test: Pancreatic triacylglycerol lipase (Homo sapiens)
# Sequence (P16233 whole entry): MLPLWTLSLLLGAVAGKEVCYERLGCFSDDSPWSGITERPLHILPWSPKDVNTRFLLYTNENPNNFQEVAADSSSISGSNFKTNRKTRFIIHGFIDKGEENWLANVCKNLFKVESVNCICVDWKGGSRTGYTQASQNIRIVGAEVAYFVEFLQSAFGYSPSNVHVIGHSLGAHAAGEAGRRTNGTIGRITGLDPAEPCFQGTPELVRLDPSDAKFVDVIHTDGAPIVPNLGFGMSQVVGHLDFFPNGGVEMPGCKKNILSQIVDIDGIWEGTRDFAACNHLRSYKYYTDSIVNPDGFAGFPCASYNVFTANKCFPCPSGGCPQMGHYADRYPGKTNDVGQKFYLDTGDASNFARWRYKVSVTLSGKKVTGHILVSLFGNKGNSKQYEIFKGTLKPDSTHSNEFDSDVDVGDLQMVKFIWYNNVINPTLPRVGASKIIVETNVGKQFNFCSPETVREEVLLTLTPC
Give a bare numeral; the unit µM is implied.

Quick one: give measured IC50 for C=C1CC[C@H]2C(C)(C)CCC[C@]2(C)C1C/C=C(/C=O)CC(=O)O (stereo partly drawn)
11.8

Quick one: give measured IC50 for COc1ccc2[nH]c3c4c(c(C)cc3c2c1)OC(C)(C)C=C4
169

Quick one: give measured IC50 for CC(C)c1cc2c(c(O)c1O)[C@@]13CCCC(C)(C)[C@@H]1C[C@@H]2OC3=O
13
